Reported IC50, human IDO1 (Homo sapiens, UniProt P14902).

Some entries whose results are on file:
COc1ccc(OC(=O)N[C@H](C)[C@H]2CC[C@@H](c3ccnc4ccc(F)cc43)CC2)cc1 < 50 nM
C[C@@H](NC(=O)Oc1ccc(F)cc1)[C@H]1CC[C@@H](c2ccnc3ccc(F)cc32)CC1 < 250 nM
Cc1ccc(NC(=O)N[C@H](C)[C@H]2CC[C@@H](c3ccnc4ccc(F)cc43)CC2)cc1 < 50 nM

// moving on: another record for IC50
Problem: GET /values?readout=IC50&item= Cc1ccc(NC(=O)N[C@H](C)[C@H]2CC[C@@H](c3ccnc4ccc(F)cc43)CC2)cc1Cl
Result: < 50 nM
